Please provide measured T/C for the entries that follow.
Tested on: L1210 leukemia ip in BDF1 mice, survival T/C
RUN_DESCRIPTION: NCI In Vivo Anticancer Drug Screen. Data for tumor model L1210 Leukemia (intraperitoneal) in B6D2F1 (BDF1) mice
CONDITION_CONTEXT: endpoint: mean survival time; dose: 200.0 mg/kg/injection; schedule: Q04DX003 (ip); vehicle: Klucel (hydroxypropylcellulose) (HPC); higher = longer survival
Toxic doses and inconclusive results are not listed.

Solved cases (4 shown):
# COMPOUND, ASSAYED_TARGET, T/C
data = [
    ("CC1SCSCS1", "L1210 leukemia ip in BDF1 mice, survival T/C", "88 % of control"),
    ("COc1ccc(Cl)cc1NC(=O)Nc1ccc(Cl)cc1Cl", "L1210 leukemia ip in BDF1 mice, survival T/C", "91 % of control"),
    ("O=S(=O)(Nc1ccc(Cl)cc1Cl)c1ccccc1", "L1210 leukemia ip in BDF1 mice, survival T/C", "103 % of control"),
    ("CC1=NNC(=O)C1", "L1210 leukemia ip in BDF1 mice, survival T/C", "98 % of control"),
]

Hello, I would appreciate it if you could give T/C for each entry below.
1. Clc1ccc(/C=C2\c3cc(Cl)ccc3-c3c(Cl)cc(Cl)cc32)cc1
2. O=S(=O)(/N=C1C=C/C(=N/S(=O)(=O)c2ccccc2)C2C3C=CC(C3)C/12)c1ccccc1 (configuration not stated)
3. COc1cc2c(c3oc(=O)ccc13)C=CC(C)(C)O2

91 % of control
97 % of control
107 % of control

----------
Please provide measured T/C for the entries that follow.
Test system: L1210 leukemia ip in BDF1 mice, survival T/C
RUN_DESCRIPTION: NCI In Vivo Anticancer Drug Screen. Data for tumor model L1210 Leukemia (intraperitoneal) in B6D2F1 (BDF1) mice
CONDITION_CONTEXT: endpoint: mean survival time; dose: 6.25 mg/kg/injection; schedule: Q01DX009 (ip); vehicle: saline; higher = longer survival
Toxic doses and inconclusive results are not listed.

# COMPOUND, ASSAYED_TARGET, T/C
data = [
    ("CCCCCCCCN(N)C12CC3CC(CC(C3)C1)C2", "L1210 leukemia ip in BDF1 mice, survival T/C", "106 % of control"),
    ("CN1CCCCC1CCN1c2ccccc2Sc2ccc(S(C)=O)cc21 (stereo not given)", "L1210 leukemia ip in BDF1 mice, survival T/C", "97 % of control"),
]

Hello, I would appreciate it if you could give T/C for each entry below.
1. CCNC1C2CCC(C2)C1c1ccccc1 (stereo not given)
2. CC(CN1c2ccccc2Sc2cccnc21)N(C)C (stereo not given)

94 % of control
97 % of control

----------
Please provide measured T/C for the entries that follow.
System: L1210 leukemia ip in BDF1 mice, survival T/C
RUN_DESCRIPTION: NCI In Vivo Anticancer Drug Screen. Data for tumor model L1210 Leukemia (intraperitoneal) in B6D2F1 (BDF1) mice
CONDITION_CONTEXT: endpoint: mean survival time; dose: 200.0 mg/kg/injection; schedule: Q04DX003 (ip); vehicle: saline; higher = longer survival
Toxic doses and inconclusive results are not listed.

Solved cases (4 shown):
# COMPOUND, ASSAYED_TARGET, T/C
rows = [
    ("O=C1CCSCCN1", "L1210 leukemia ip in BDF1 mice, survival T/C", "97 % of control"),
    ("O=S1(=O)CCCC1", "L1210 leukemia ip in BDF1 mice, survival T/C", "100 % of control"),
    ("CC(=O)Nc1ccc2c(c1)C(N)c1ccccc1-2 (configuration not stated)", "L1210 leukemia ip in BDF1 mice, survival T/C", "103 % of control"),
    ("O=C(O)c1ccc(S(=O)(=O)O)cc1C(=O)O", "L1210 leukemia ip in BDF1 mice, survival T/C", "102 % of control"),
]

Hello, I would appreciate it if you could give T/C for each entry below.
1. C/C(=C(/CCO)SCC/C(=N/O)c1ccccc1)N(C=O)Cc1cnc(C)nc1N
2. O=S(=O)(/C=C\c1ccccc1)N1CCCc2ccccc21
3. CCNc1nc(Cl)nc(-c2cn(-c3ccccc3)c3ccccc23)n1

["97 % of control", "102 % of control", "92 % of control"]

----------
Please provide measured T/C for the entries that follow.
Test system: L1210 leukemia ip in BDF1 mice, survival T/C
RUN_DESCRIPTION: NCI In Vivo Anticancer Drug Screen. Data for tumor model L1210 Leukemia (intraperitoneal) in B6D2F1 (BDF1) mice
CONDITION_CONTEXT: endpoint: mean survival time; dose: 12.5 mg/kg/injection; schedule: Q01DX009 (ip); vehicle: saline with Tween-80; higher = longer survival
Inconclusive results and toxic doses are left out.

# CHEMICAL_STRUCTURE, T/C
data = [
    ("CN1CCN(Cc2nc3cccc4c3c([n+]2[O-])-c2ccccc2-4)CC1", "101 % of control"),
    ("CN1CCC(CN2c3ccccc3Sc3ccccc32)CC1", "93 % of control"),
    ("N#Cc1cc([N+](=O)[O-])c(Cl)c([N+](=O)[O-])c1Cl", "101 % of control"),
]

Hello, I would appreciate it if you could give T/C for each entry below.
1. N=C(N)SCc1c(-c2ccccc2)oc(-c2ccccc2)c1CSC(=N)N
2. CN1CCC(S)(S)CC1

1. 101 % of control
2. 105 % of control

----------
System: L1210 leukemia ip in BDF1 mice, survival T/C
RUN_DESCRIPTION: NCI In Vivo Anticancer Drug Screen. Data for tumor model L1210 Leukemia (intraperitoneal) in B6D2F1 (BDF1) mice
CONDITION_CONTEXT: endpoint: mean survival time; dose: 100.0 mg/kg/injection; schedule: Q01DX001 (ip); vehicle: other; higher = longer survival
Inconclusive results and toxic doses are left out.
ENDPOINT_NAME: T/C

# COMPOUND, T/C
rows = [
    ("CC(=O)OCC1OC(n2cnc3c(C)nc(F)nc32)C(OC(C)=O)C1OC(C)=O (configuration not stated)", "113 % of control"),
    ("CCN(CC)c1ccc(C(=S)c2ccc(N(CC)CC)cc2)cc1", "91 % of control"),
    ("CCOC(=O)c1nc[nH]c1N=[N+]=[N-]", "106 % of control"),
    ("CC(=O)O[C@H]1[C@H]2O[C@]23[C@@H]2CC[C@]4(O)C[C@@H](O)CC[C@]4(C)[C@H]2CC[C@]3(C)[C@H]1c1ccc(=O)oc1", "94 % of control"),
    ("O=C(O)C1C2C=CC21 (configuration not stated)", "96 % of control"),
]

Hello, I would appreciate it if you could give T/C for each entry below.
1. O=CC1(C(O)C2SCCCS2)SCCCS1 (configuration not stated)
2. O=C(OC(C(=O)O)C(OC(=O)c1ccccc1)C(=O)O)c1ccccc1 (configuration not stated) (tested in a mixture with another compound)
3. O=C(NCCF)NC1CCSCC1
4. COc1cc2c(cc1OC)C(=O)CC2
5. O=[N+]([O-])CC(C[N+](=O)[O-])C(F)(F)C(F)(F)C(F)(F)F
6. O=P1(O)Cc2ccccc2-c2ccccc21
7. C1=Cc2ccccc2/C1=C/c1ccccc1

["113 % of control", "109 % of control", "112 % of control", "98 % of control", "101 % of control", "96 % of control", "97 % of control"]

----------
Please provide measured T/C for the entries that follow.
Tested on: L1210 leukemia ip in BDF1 mice, survival T/C
RUN_DESCRIPTION: NCI In Vivo Anticancer Drug Screen. Data for tumor model L1210 Leukemia (intraperitoneal) in B6D2F1 (BDF1) mice
CONDITION_CONTEXT: endpoint: mean survival time; dose: 400.0 mg/kg/injection; schedule: Q01DX009 (ip); vehicle: saline; higher = longer survival
Toxic doses and inconclusive results are not listed. Square brackets hold non-standard residues; d marks the D form. Peptide text beside a SMILES is read from it. ξ: configuration not given here. ξF = NC(Cc1ccccc1)C(=O)O; ξV = CC(C)C(N)C(=O)O

# COMPOUND, T/C
rows = [
    ("COc1ccc(Cl)cc1NS(=O)(=O)c1c(C)cc(C)cc1C", "111 % of control"),
    ("CC(C)C(NC(=O)CN)C(=O)O (stereo not drawn) (H-Gly-[ξV]-OH)", "112 % of control"),
    ("CC1CN1P(=O)(OCCC#N)N1CC1C (stereo not drawn)", "96 % of control"),
    ("O=C1CCSCCN1", "101 % of control"),
    ("c1ccc(-c2c[n+]3cc4ccccc4cc3cn2)cc1", "97 % of control"),
    ("CCN(CCO)CC1OC(OC)C2OC(C)(C)OC12 (stereo not drawn)", "94 % of control"),
]

Hello, I would appreciate it if you could give T/C for each entry below.
1. Nc1nc(N)c(N)c(=O)[nH]1
2. NC(Cc1ccccc1)C(=O)NCC(=O)O (stereo not drawn) (H-[ξF]-Gly-OH)

1. 101 % of control
2. 102 % of control
